- measured.target: mouse TRPM3α2 (mTRPM3) ion channel (Mus musculus, UniProt J9SQF3)
- Sequence (J9SQF3 1-1709 isoform J9SQF3-12): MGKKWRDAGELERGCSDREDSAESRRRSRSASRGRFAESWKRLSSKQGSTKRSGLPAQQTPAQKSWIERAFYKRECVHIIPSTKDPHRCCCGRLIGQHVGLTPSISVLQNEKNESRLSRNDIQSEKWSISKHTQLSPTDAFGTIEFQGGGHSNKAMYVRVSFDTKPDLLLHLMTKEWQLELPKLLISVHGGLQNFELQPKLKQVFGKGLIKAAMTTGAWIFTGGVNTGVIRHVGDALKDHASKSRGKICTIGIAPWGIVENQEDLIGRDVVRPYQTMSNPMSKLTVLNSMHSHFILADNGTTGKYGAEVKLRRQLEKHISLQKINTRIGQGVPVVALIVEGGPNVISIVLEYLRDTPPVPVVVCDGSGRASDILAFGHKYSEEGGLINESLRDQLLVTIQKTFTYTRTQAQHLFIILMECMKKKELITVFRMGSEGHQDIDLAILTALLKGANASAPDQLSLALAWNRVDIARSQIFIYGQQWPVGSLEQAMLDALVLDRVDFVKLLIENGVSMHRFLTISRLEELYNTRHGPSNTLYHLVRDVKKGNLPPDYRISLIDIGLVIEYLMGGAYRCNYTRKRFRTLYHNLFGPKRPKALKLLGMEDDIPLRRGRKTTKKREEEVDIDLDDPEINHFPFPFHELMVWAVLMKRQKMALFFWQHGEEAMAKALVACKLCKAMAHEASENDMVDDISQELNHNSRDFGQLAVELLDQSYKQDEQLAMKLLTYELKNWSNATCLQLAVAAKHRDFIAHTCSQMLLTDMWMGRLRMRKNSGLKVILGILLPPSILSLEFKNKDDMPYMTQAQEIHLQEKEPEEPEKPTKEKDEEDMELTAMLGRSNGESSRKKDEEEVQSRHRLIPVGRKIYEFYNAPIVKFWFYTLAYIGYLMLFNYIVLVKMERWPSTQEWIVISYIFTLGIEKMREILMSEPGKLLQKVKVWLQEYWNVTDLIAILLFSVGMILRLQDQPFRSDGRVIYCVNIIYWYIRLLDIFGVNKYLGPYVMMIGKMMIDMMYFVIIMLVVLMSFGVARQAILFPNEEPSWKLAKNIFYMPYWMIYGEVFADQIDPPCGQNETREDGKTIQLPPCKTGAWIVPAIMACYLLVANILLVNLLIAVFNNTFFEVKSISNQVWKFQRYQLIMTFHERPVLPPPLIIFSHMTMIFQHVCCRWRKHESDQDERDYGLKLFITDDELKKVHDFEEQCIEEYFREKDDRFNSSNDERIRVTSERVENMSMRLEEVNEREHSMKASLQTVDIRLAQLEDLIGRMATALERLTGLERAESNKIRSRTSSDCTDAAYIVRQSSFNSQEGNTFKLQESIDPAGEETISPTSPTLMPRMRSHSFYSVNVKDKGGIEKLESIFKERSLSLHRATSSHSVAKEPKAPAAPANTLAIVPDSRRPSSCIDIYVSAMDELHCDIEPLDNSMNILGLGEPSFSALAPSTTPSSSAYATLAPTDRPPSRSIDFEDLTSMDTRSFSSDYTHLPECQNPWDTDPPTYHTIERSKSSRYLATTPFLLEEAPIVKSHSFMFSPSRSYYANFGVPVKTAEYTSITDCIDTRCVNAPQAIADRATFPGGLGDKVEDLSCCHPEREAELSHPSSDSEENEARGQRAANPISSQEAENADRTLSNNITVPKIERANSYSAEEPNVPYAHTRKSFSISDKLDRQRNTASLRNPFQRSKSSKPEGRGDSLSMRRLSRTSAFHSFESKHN
- protocol.description: TRPM3 ion channel driven Ca2+ uptake (Fluo-4 AM assay, pregnenolone sulfate stimulated)
- condition.notes: TRPM3 overexpressing flip-in HEK293 cells, channel opened with pregnenolone sulfate (PS) 50 μM, 2.4 mM Ca2+
- Procedure: In order to monitor the inhibition of the mouse TRPM3α2 (mTRPM3) ion channel by the compounds of the invention, a cellular system making use of an mTRPM3alpha2 or hTRPM3 overexpressing cell line (flip-in HEK293) was used. […] For mTRPM3, the intracellular Ca^2+ was measured with a Calcium responsive dye, Fluor-4 AM ester (Invitrogen). […] Channel inhibition was calculated compared to a non-PS stimulated control versus a condition stimulated with PS (50 μM) with vehicle. […]
pIC50: −log10 of the molar value.
assay.readout: pIC50

The examples below pair each entry with its known result.
| compound | pIC50 |
| --- | --- |
| Cc1cc2ccc(OCc3c(F)cnn3C)cn2c1C(=O)NC1(CO)CCNC1=O (single isomer, unassigned) [Cpd 040 - En1] | > 6.00 |
| COCC(C)(CO)NC(=O)c1c(C)cc2ccc(OCc3ccccn3)cn12 (single isomer, unassigned) [Cpd 032 - En1] | 4.70 to 6.00 |
| COc1ncccc1COc1ccc2cc(C)c(C(=O)NC3(CO)CCNC3=O)n2c1 (single isomer, unassigned) [Cpd 038 - En2] | 4.70 to 6.00 |

Query string: May I ask what pIC50 has been recorded for Cc1cc2ccc(OCc3cccnc3)cn2c1C(=O)NC(CO)CC(F)(F)F (single isomer, unassigned) [Cpd 042 - En2] ?
Result string: 4.70 to 6.00

Query string: # iterate: Cc1cc2ccc(OCc3c(F)cnn3C)cn2c1C(=O)NC1(CO)CCNC1=O (single isomer, unassigned) [Cpd 040 - En2]
Result string: 4.70 to 6.00

Query string: Repeat with Cc1cc2ccc(OCc3cccnc3C(F)(F)F)cn2c1C(=O)NC(CO)CC(F)(F)F (single isomer, unassigned) [Cpd 044 - En2]
Result string: > 6.00

Query string: Please give the result for Cc1cc2ccc(OCc3cccnc3C(F)(F)F)cn2c1C(=O)NC1(CO)CCNC1=O (single isomer, unassigned) [Cpd 039 - En1] too.
Result string: > 6.00

Query string: Next compound: Cc1ncc(COc2ccc3cc(C)c(C(=O)NC(C)C(N)=O)n3c2)s1 (stereo not shown) [Cpd 031]
Result string: 4.70 to 6.00

Query string: Queued: Cc1cc2ccc(OCc3cnccn3)cn2c1C(=O)NC1(CO)CCNC1=O (single isomer, unassigned) [Cpd 046 - En2]
Result string: < 4.70

Query string: Cc1cc2ccc(OCc3c(F)cnn3C)cn2c1C(=O)NC(CO)CC(F)(F)F (single isomer, unassigned) [Cpd 045 - En2] ?
Result string: < 4.70
